Just for reference, the supplement of paper PMC6555819 is where these values come from.

- System: LXRb homodimer (NR concentration 270 nM)
- test_name: PBM binding z-score (relative to random genomic background probes); higher = stronger binding; sequences stand for … in GC…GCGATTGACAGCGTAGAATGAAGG
# PBM binding z-score listing for each entry below
Returns: the value as a bare number; no unit string appended.

Asked: Give me measured PBM binding z-score, please, for this sequence: `ACTTACGGGTCAATGAGGTTATAGCACGCGTATA`
Given back: 1.04

Asked: Identify the reported PBM binding z-score for the following entry. `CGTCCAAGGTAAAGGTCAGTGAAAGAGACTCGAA`
Given back: -0.119

Asked: Quote PBM binding z-score reported for `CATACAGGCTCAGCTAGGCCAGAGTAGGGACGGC` please.
Given back: -0.846

Asked: In one line, give reported PBM binding z-score of the entry `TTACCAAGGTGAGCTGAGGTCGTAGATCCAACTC` .
Given back: -1.29

Asked: Recall and state the measured PBM binding z-score for `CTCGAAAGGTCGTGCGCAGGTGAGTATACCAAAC` .
Given back: 0.153

Asked: Return the recorded PBM binding z-score value; entry: `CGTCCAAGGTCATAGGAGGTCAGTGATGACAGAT`
Given back: 1.02

Asked: Read the entry `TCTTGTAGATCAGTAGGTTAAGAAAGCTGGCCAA` and write its reported PBM binding z-score.
Given back: 0.098

Asked: Query PBM binding z-score for `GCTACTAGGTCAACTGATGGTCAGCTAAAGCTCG`
Given back: 0.314

Asked: Given `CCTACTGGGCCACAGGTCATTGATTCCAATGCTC` , respond with its PBM binding z-score.
Given back: 0.443

Asked: Assign PBM binding z-score to the following record: `GATACATGGTCAGCTAGAGGCCAGAGTATGGAAA`
Given back: -1.11

Asked: Recall and state the measured PBM binding z-score for `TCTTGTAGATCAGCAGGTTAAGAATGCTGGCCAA` .
Given back: -0.573

Asked: Look up and state reported PBM binding z-score for `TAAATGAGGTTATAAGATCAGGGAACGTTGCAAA`
Given back: 0.646

====

- System: PPARg:RXRa DBDmut IVT, anti-RXR (DBD mutation: RXRa K156A/R161A, NR concentration 270 nM, RXRa partner concentration 90 nM)
- test_name: PBM binding z-score (relative to random genomic background probes); higher = stronger binding; sequences stand for … in GC…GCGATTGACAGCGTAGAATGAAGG
value_type: PBM binding z-score

Would you please look over these solved cases?
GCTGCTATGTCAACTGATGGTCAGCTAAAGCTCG
0.616
CCGACTAGGTTATGGGGCATTCAGGCAACGGTGA
3.02
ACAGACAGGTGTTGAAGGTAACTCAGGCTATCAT
-0.116
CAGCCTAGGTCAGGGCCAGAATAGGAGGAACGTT
1.51
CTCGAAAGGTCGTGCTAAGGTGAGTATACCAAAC
0.626
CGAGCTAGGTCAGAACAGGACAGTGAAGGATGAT
1.93
AAGACAGGGTCATCGTAGGCCAGAGTACGCACAG
1.48
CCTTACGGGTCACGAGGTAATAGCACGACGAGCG
4.44

Asked: Complete the entry with PBM binding z-score for `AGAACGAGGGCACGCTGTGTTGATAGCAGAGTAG`
Given back: 4.43

Asked: Return PBM binding z-score for the following sequence: `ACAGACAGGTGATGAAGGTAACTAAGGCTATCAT`
Given back: -0.224

Asked: Identify measured PBM binding z-score associated with `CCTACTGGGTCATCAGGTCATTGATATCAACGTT`
Given back: 6.76

Asked: For the sequence `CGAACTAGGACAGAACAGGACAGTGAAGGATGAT` , give its reported PBM binding z-score.
Given back: 3.37

Asked: Give recorded PBM binding z-score. `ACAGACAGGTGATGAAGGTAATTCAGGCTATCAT`
Given back: 0.125

Asked: Give me measured PBM binding z-score, please, for this sequence: `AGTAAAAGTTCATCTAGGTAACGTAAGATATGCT`
Given back: 0.423

Asked: Tell me PBM binding z-score reported for `AGAATGAGGGTACCAAAGATCAGGGAAACGCTTG`
Given back: 1.95

Asked: Dear colleague, please send me the reported PBM binding z-score for `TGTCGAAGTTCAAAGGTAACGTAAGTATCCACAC` when you can.
Given back: -0.721

Asked: Supply PBM binding z-score value. Item: `GGAACGAGGGCATACGAGTTGATAGCATGGCGAT`
Given back: 2.9

Asked: Consider the sequence `TAAATGAGGTTAAAGATCAGGGAACGTGGCGTCG` . State its measured PBM binding z-score.
Given back: 3.59

Asked: Note PBM binding z-score for the sequence shown: `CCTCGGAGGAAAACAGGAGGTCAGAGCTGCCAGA`
Given back: -0.518

Asked: For the sequence `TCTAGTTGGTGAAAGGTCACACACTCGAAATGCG` , give its reported PBM binding z-score.
Given back: 2.69

Asked: Read the entry `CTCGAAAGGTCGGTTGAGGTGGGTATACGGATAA` and write its reported PBM binding z-score.
Given back: -0.182
